B1: glmS ribozyme (parent)
chain: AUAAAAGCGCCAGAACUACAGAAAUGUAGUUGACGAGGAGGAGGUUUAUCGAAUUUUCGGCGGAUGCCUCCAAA

- Variants of: B1
- EXPERIMENT DESCRIPTION: self-cleavage kobs at 10000 uM GlcN6P; higher = faster cleavage; RNA array
- CONDITION: with glucosamine-6-phosphate
Fewer inactive variants are shown than the library holds.
Below, each entry is listed alongside its reported self-cleavage kobs at 10000 uM GlcN6P.

Q: # get_value(readout='self-cleavage kobs at 10000 uM GlcN6P', item= A6U A39C G43U G51U C70G C71A )
Ans: < 1e-05 s⁻¹

Q: # get_value(readout='self-cleavage kobs at 10000 uM GlcN6P', item= C11G C58U )
Ans: < 1e-05 s⁻¹

Q: # get_value(readout='self-cleavage kobs at 10000 uM GlcN6P', item= A48C G51U )
Ans: < 1e-05 s⁻¹

Q: # get_value(readout='self-cleavage kobs at 10000 uM GlcN6P', item= A36G G59U )
Ans: < 1e-05 s⁻¹

Q: # get_value(readout='self-cleavage kobs at 10000 uM GlcN6P', item= U46A U65C )
Ans: 0.000782 s⁻¹

Q: # get_value(readout='self-cleavage kobs at 10000 uM GlcN6P', item= G9C G32C A36U U46A )
Ans: < 1e-05 s⁻¹

Q: # get_value(readout='self-cleavage kobs at 10000 uM GlcN6P', item= G7U A15G )
Ans: < 1e-05 s⁻¹

Q: # get_value(readout='self-cleavage kobs at 10000 uM GlcN6P', item= U46G C71A )
Ans: 0.00143 s⁻¹

Q: # get_value(readout='self-cleavage kobs at 10000 uM GlcN6P', item= G13U G29U A36U U57G )
Ans: < 1e-05 s⁻¹

Q: # get_value(readout='self-cleavage kobs at 10000 uM GlcN6P', item= G32U G40U C70U )
Ans: 5.9e-05 s⁻¹

# credit: the supplement of paper PMC7125110
